assay: NCI Yeast Anticancer Drug Screen. Data for the bub3 strain (AID 167); conditions: S. cerevisiae bub3 mutant strain, at 50.0 µM (retest, dose inferred, filed as 5.0)
The panel holds about 79,000 compounds, 15% with a hit somewhere; the sample as a whole holds those more often. Activity calls are given as the source filed them. Rule as the data show it: active = growth inhibition above about 70%; inactive = the rest.
Form entry, call: pick from class 1 (active), class 0 (inactive)

What did this assay record as the result for c1ccc2c(c1)[O][Sn][O]2 ?
class 0

What did this assay record as the result for CO[C@@]12[C@@H]3N[C@@H]3CN1C1=C(C(=O)C(N(C)c3ccc(O)cc3)=C(C)C1=O)[C@@H]2COC(N)=O ?
class 0

What did this assay record as the result for [Au+].[Au+].[Au+].[c-]1nccn1Cc1ccccc1.[c-]1nccn1Cc1ccccc1.[c-]1nccn1Cc1ccccc1 ?
class 1

What did this assay record as the result for N#Cc1cc([N+](=O)[O-])c(Cl)c([N+](=O)[O-])c1Cl ?
class 1

Next item in the queue.
What did this assay record as the result for CCC[CH2][Sn]([CH2]CCC)([CH2]CCC)[O]C(=O)C(OC)c1ccccc1 (stereo not given) ?
class 1

----------
assay: NCI Yeast Anticancer Drug Screen. Data for the mlh1 rad18 strain (AID 175); settings: S. cerevisiae mlh1 rad18 strain growth inhibition; at 5.0 µM (retest, dose inferred, filed as 0.5)
This is part of a sample that, as a whole, favours compounds with a hit. Of some 79,000 tested, about 15% had one in any assay. Calls of active or inactive are those of the source. No stated cut-off is given here; in the data, active means growth inhibition above about 70%; inactive means the rest.
Form entry, call: pick from active, inactive

Example cases with answers are listed next.
What did this assay record as the result for O=C(OCC(CCl)OC(=O)C(Cl)(Cl)Cl)C(Cl)(Cl)Cl (stereo unspecified) ?
inactive

What did this assay record as the result for O=[As](O)(O)c1ccc(Cc2ccc([As](=O)(O)O)cc2)cc1 ?
active

What did this assay record as the result for C#CC1(OC(C)=O)CCC2C3CC=C4C=C(OC(C)=O)CCC4(C)C3CCC21C (stereo unspecified) ?
inactive

What did this assay record as the result for Cc1cc([N+](=O)[O-])c2ccccc2[n+]1[O-] ?
active

What did this assay record as the result for O=C(O)CN1CCN(CC(=O)O)CC(=O)[O][Hg][O]C(=O)C1 ?
active

Next item in the queue.
What did this assay record as the result for O=[n+]1c2ccccc2n([O-])c2ccccc21 ?
active

----------
test: NCI Yeast Anticancer Drug Screen. Data for the rad50 strain (AID 155);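 also: 0% = growth of vehicle-only cultures of the same strain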; details: S. cerevisiae rad50 strain growth inhibition; at 50.0 µM (retest, dose inferred, filed as 5.0); stronger effect = higher value
The panel holds about 79,000 compounds, 15% with a hit somewhere; the sample as a whole holds those more often.
Quick reference for growth inhibition among some compounds
All answers are understood in %, so give the number only.

Entry under test: CC[S+](C)c1ccc(-c2c3nc(c(-c4ccc([S+](C)CC)cc4)c4ccc([nH]4)c(-c4ccc([S+](C)CC)cc4)c4nc(c(-c5ccc([S+](C)CC)cc5)c5ccc2[nH]5)C=C4)C=C3)cc1 (centres undefined) . Its growth inhibition was 95

***
Entry under test: O=C(CBr)OCC(O)CCl (centres undefined) . Its growth inhibition was 99

Entry under test: CC(C)(C)[Si](OC(=O)N(CCCl)CCCl)(c1ccccc1)c1ccccc1 . Its growth inhibition was 82

Entry under test: CC/C(=C/c1ccc(OC)cc1OC)[N+](=O)[O-] . Its growth inhibition was 99

Entry under test: CN(C)c1ccc(/C=C/c2cc3scc(-c4ccccc4)[n+]3c3ccccc23)cc1 . Its growth inhibition was 87

Entry under test: C[CH2][Sn]([CH2]C)[O][Sn]([Cl])([CH2]C)[CH2]C . Its growth inhibition was 96

Entry under test: O=[N+]([O-])C=C([SH2+])[SH2+].O=[N+]([O-])C=C([SH2+])[SH2+].[Ni+2].c1ccc(C[P+](c2ccccc2)(c2ccccc2)c2ccccc2)cc1 . Its growth inhibition was 44

Entry under test: O=S(=O)(F)c1ccc(Cl)cc1 . Its growth inhibition was 97

Entry under test: Cc1sc(Cc2ccccc2)nc1-c1ccc(N=Cc2ccc(N(CCCl)CCCl)cc2)cc1 . Its growth inhibition was 95

----------
assay: NCI Yeast Anticancer Drug Screen. Data for the cln2 rad14 strain (AID 165);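 also: 0% = growth equal to vehicle treated cultures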; conditions: S. cerevisiae cln2 rad14 strain, at 50.0 µM, stronger effect = higher value
The panel holds about 79,000 compounds, 15% with a hit somewhere; the sample as a whole holds those more often.
Quick reference for growth inhibition among some molecules
All answers are understood in %, so give the number only.

Some solved entries appear below for comparison.
Entry under test: CCC1(c2ccccc2)C(=O)N(C)C(=O)N(CCCl)C1=O (stereo not given) . Its growth inhibition was -34.5

Entry under test: CCCCC(CC)COP(OCC(CC)CCCC)OCC(CC)CCCC.[Cl][Sn][Cl] (stereo not given) . Its growth inhibition was -10.4

Entry under test: CN(C)C(=O)Sc1c(Cl)cc(S(=O)(=O)F)cc1[N+](=O)[O-] . Its growth inhibition was 29.9

Entry under test: OC(c1ccccc1)C(NC1CCCCC1)c1ccccc1 (stereo not given) . Its growth inhibition was -24.2

Entry under test: CC12OC1(C)C1C(=O)OCC1C2=O (stereo not given) . Its growth inhibition was 3.95

***
Entry under test: CCOC(=O)c1[nH]cnc1/N=N/N(C)N . Its growth inhibition was 89.2

Entry under test: O=Cc1cn(CCCCCCCCCCCCn2cc(C=O)c3ccccc32)c2ccccc12 . Its growth inhibition was -5.55

----------
assay: NCI Yeast Anticancer Drug Screen. Data for the sgs1 mgt1 strain (AID 161);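 also: 0% = growth of cultures given vehicle only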; conditions: S. cerevisiae sgs1 mgt1 strain, at 50.0 µM
This is part of a sample that, as a whole, favours compounds with a hit. Of some 79,000 tested, about 15% had one in any assay. Activity calls are given as the source filed them. Rule as the data show it: active = growth inhibition above about 70%; inactive = the rest.
Form entry, call: pick from YES for active, NO for inactive

Example cases with answers are listed next.
What did this assay record as the result for c1ccc([As+](c2ccccc2)(c2ccccc2)c2cccc3ccccc23)cc1 ?
YES

What did this assay record as the result for CCCNC1=C(C)C(=O)C2=C(C1=O)[C@H](COC(N)=O)[C@]1(OC)[C@@H]3N[C@@H]3CN21 ?
NO

What did this assay record as the result for NC(N)=N/N=C/c1c[nH]c2ccccc12 ?
NO

***
What did this assay record as the result for CC1(C)N=C(N)N=C(N)N1c1ccc(CCc2cccc(Cl)c2S(=O)(=O)F)c(Cl)c1 ?
YES

What did this assay record as the result for c1ccc2cc(C3NCCc4[nH]cnc43)ccc2c1 (centres undefined) ?
NO

What did this assay record as the result for CCCCCCCCCCCCCC(=O)O[C@H]1CC[C@H](NC(=O)[C@H](OC)[C@H](O)[C@@H](O)[C@H](O)/C=C/C(C)C)C(=O)NC1 ?
YES

What did this assay record as the result for [C-]#[O+].[C-]#[O+].[C-]#[O+].[C-]#[O+].[Cr].c1ccc([PH+](CC[PH+](c2ccccc2)c2ccccc2)CC[PH+](c2ccccc2)c2ccccc2)cc1 ?
NO

What did this assay record as the result for CNP(=O)(Oc1cc(Cl)c(Cl)cc1Cl)N1CCN(c2ccccc2)CC1 (centres undefined) ?
YES

What did this assay record as the result for C[N+](C)(C)CC1CCCc2ccccc2C1=O (centres undefined) ?
YES

----------
test: NCI Yeast Anticancer Drug Screen. Data for the mlh1 rad18 strain (AID 175); details: S. cerevisiae mlh1 rad18 strain growth inhibition; at 50.0 µM
This is part of a sample that, as a whole, favours compounds with a hit. Of some 79,000 tested, about 15% had one in any assay. The source made the active and inactive calls. Rule as the data show it: active = growth inhibition above about 70%; inactive = the rest.
Form entry, call: pick from True (active), False (inactive)

Example cases with answers are listed next.
What did this assay record as the result for [CH3][Sn]([CH3])([Br])[Br].c1ccc(-c2nnc(-c3ccccn3)nc2-c2ccccc2)cc1 ?
False

What did this assay record as the result for CN(C)c1ccc(C(c2c(O)c3ccccc3oc2=O)c2c(O)c3ccccc3oc2=O)cc1 ?
False

***
What did this assay record as the result for O=C(Nc1ccc(N(CCCl)CCCl)cc1)Oc1ccc(C(=O)O)cc1 ?
False

What did this assay record as the result for COC(=O)c1ccccc1NP(=O)(O)Oc1ccccc1 (tested in a mixture with another compound) ?
False

----------
assay: NCI Yeast Anticancer Drug Screen. Data for the cln2 rad14 strain (AID 165);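 also: 0% = growth equal to vehicle treated cultures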; settings: S. cerevisiae cln2 rad14 strain, at 50.0 µM, stronger effect = higher value
This is part of a sample that, as a whole, favours compounds with a hit. Of some 79,000 tested, about 15% had one in any assay.
The threshold is inclusive: growth inhibition of exactly 10% counts as YES; values below receive NO.

Does the compound N#CN(Cc1ccccc1)C(c1ccccc1)(c1ccccc1)c1ccccc1.[I][Sn]([c]1ccccc1)([c]1ccccc1)[c]1ccccc1 have recorded growth inhibition that is 10% or more?
YES

----------
Quick reference for growth inhibition among some compounds
experiment: NCI Yeast Anticancer Drug Screen. Data for the cln2 rad14 strain (AID 165);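 also: 0% = growth equal to vehicle treated cultures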; conditions: S. cerevisiae cln2 rad14 strain, at 50.0 µM (retest, dose inferred, filed as 5.0), stronger effect = higher value
Compounds without any hit were thinned out: in the full panel of roughly 79,000, 15% have a hit.
All answers are understood in %, so give the number only.

Some solved entries appear below for comparison.
Entry under test: COS(=O)(=O)c1ccccc1 . Its growth inhibition was -4

Entry under test: CCOP(=S)(OCC)SCc1c(C)c(C)c(CSP(=S)(OCC)OCC)c(C)c1C . Its growth inhibition was -10

***
Entry under test: [C-]#[O+].[C-]#[O+].[Mo].c1ccc([PH+](CC[PH+](c2ccccc2)c2ccccc2)c2ccccc2)cc1.c1ccc([PH+](CC[PH+](c2ccccc2)c2ccccc2)c2ccccc2)cc1 . Its growth inhibition was 71

Entry under test: COc1cc(/C=C/[N+](=O)[O-])c(OC)cc1Br . Its growth inhibition was 25

Entry under test: CC(C)C1(NC(=O)C2CC3c4cccc5[nH]cc(c45)CC3N(C)C2)OC2(O)C3CCCN3C(=O)C(Cc3ccccc3)N2C1=O (centres undefined) . Its growth inhibition was 96

Entry under test: COc1cc(/C=C/[N+](=O)[O-])cc(OC)c1OC . Its growth inhibition was 99

Entry under test: O=C1C(C(Nc2ccccc2)c2ccccc2)=C([O-])c2ccccc21.O=C1C(C(Nc2ccccc2)c2ccccc2)=C([O-])c2ccccc21.[Ni+2] (centres undefined) . Its growth inhibition was 46

Entry under test: Cc1cc(N(CCCl)CCCl)ccc1C=Nc1ccc(-c2csc(Cc3ccccc3)n2)c(Cl)c1 . Its growth inhibition was 91

Entry under test: O=C1C(F)=C(N2CC2)C(=O)C(N2CCOCC2)=C1N1CC1 . Its growth inhibition was 96

Entry under test: CC(=O)Oc1ccc(/C=C/[N+](=O)[O-])cc1 . Its growth inhibition was 82

Entry under test: ClC(CN1CCCCC1)C(Cl)c1ccccc1 (centres undefined) . Its growth inhibition was 37
